Measured Percent Effect values are reported for all entries that follow.
- target.or.test.system: Aspartate--tRNA(Asp/Asn) ligase (Mycobacterium tuberculosis (strain ATCC 25618 / H37Rv)) (UniProt P9WFW3)
- Sequence (P9WFW3 whole entry): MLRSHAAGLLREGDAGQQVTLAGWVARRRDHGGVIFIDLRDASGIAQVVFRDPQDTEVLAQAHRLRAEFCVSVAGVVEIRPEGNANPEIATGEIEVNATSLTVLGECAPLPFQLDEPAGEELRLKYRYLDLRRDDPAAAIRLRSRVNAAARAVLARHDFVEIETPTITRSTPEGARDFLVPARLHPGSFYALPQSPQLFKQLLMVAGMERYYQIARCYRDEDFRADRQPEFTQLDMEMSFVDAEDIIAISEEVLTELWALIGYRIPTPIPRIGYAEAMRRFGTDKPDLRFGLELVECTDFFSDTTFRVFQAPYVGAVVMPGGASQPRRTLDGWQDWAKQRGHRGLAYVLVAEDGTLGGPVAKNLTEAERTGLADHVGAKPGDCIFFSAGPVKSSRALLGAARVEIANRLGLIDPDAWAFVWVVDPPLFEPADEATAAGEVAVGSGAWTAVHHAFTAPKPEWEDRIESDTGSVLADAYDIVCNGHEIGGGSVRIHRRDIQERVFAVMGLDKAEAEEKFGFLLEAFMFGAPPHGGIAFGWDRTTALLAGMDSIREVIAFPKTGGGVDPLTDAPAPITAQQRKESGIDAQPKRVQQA
- experiment.description: Assay for Asp RNA synthetase-1 from Mycobacterium tuberculosis
- Type: functional
- Parameters: scale not given: in the data most compounds retested in dose-response had high values
- condition: 30 µM
Give the quantity in %, number only.

Use these answered entries as a reference point.
Cc1n[nH]c(C)c1C1CCCN1C(=O)NCCSC(C)(C)C (stereo unspecified) = 3.45
O=C(NCCOc1ccc(F)c(F)c1)NCc1cccc(CO)c1 = 0.257
Cc1nc(C)n(C2CCCN(C(=O)c3ccccc3C)C2)n1 (stereo unspecified) = 0.173
COc1ncccc1C(=O)N1CCn2c(COCC3CC3)cnc2C1C (stereo unspecified) = -2.76
Cc1ccc(CN2C[C@@H]3COC[C@@H](NS(C)(=O)=O)[C@@H]3C2)o1 = 1.98
CC(c1nc(C2CC2)no1)N1CCN(c2ccc(C#N)cn2)CC1 (stereo unspecified) = -0.15

Data request: Given the compound "Cc1cccc(N2CCC(NC(=O)CCCc3cccs3)CC2)n1" , write its reported Percent Effect.
Data returned: 8.77

Data request: Given the compound "COc1ccc(C(=O)Nc2cnn(CC(=O)NC3CCCC3)c2)c(O)c1" , write its reported Percent Effect.
Data returned: 1.25

Data request: Given the compound COCC1CC2(CCN(C(=O)c3ccc(OC)c(Cl)c3)CC2)CO1 (stereo unspecified) , write its reported Percent Effect.
Data returned: 0.918

Data request: Given the compound "COCCc1ncc(CN2CCC(Oc3ccccc3C)CC2)cn1" , write its reported Percent Effect.
Data returned: 1.13

Data request: Given the compound Cc1cc(C2CCCN(C(=O)c3cnccn3)C2)ccn1 (stereo unspecified) , write its reported Percent Effect.
Data returned: -0.521

Reference for the values: ChEMBL document CHEMBL3988442
